- Test system: OVCAR-5 ovarian
- Assay details: NCI tumour cell line growth inhibition, 48 h
Reported metric: GI50

The reported value for NC(N)=NN=C(c1ccccc1)c1ccccc1 in terms of GI50 is 7.94 µM

The reported value for COc1ccc(-c2cn[nH]c2-c2cc(OC)c(OC)c(OC)c2)cc1OCc1ccccc1 in terms of GI50 is 3.76 µM

The reported value for COc1ccc2cc(C#Cc3ccc(-n4c(/C=C/c5cc(OC)c(OC)c(OC)c5)nc5ccccc5c4=O)c(C)c3)ccc2c1 in terms of GI50 is > 100 µM

The reported value for COc1cccc(C2=C(c3cn(C)c4ccc(Cl)cc34)C(=O)NC2=O)c1 in terms of GI50 is 15.3 µM

The reported value for CSc1nc(-c2cc3ccccc3o2)cc(-c2ccc(Cl)cc2)c1C#N in terms of GI50 is > 84.6 µM

The reported value for CCOc1cc(F)c([N+](=O)[O-])cc1[N+](=O)[O-] in terms of GI50 is 1.8 µM

The reported value for O=C(c1ccco1)c1nc2ccc(Cl)cc2[n+]([O-])c1C(F)(F)F in terms of GI50 is > 100 µM

The reported value for COc1cccc2[nH]c3c4c(c5c(c3c12)C(=O)N(CN1CCN(C)CC1)C5=O)CCC4 in terms of GI50 is 14.5 µM

The reported value for ClCc1ccccc1Cn1cnc2c(Cl)nc(Cl)nc21 in terms of GI50 is 0.471 µM

The reported value for Nc1ccc(S(=O)(=O)c2ccc(N)cc2)cc1 in terms of GI50 is > 100 µM

The reported value for Nc1n[nH]c2cccc(C#Cc3cccc(NC(=O)c4ccc(N5CCOCC5)c(C(F)(F)F)c4)c3)c12 in terms of GI50 is 0.599 µM

The reported value for C=CC(=O)N1CCN(CCCn2c(=O)c(-c3c(Cl)c(OC)cc(OC)c3Cl)cc3cnc(NC)nc32)CC1 in terms of GI50 is 15.8 µM

The reported value for OCCCCC#Cc1ccccc1C#Cc1ccccn1 in terms of GI50 is > 100 µM
